Measured polymerase ribozyme fitness (log ratio) values are reported for all entries that follow.
B1: TPR t1 (parent)
chain: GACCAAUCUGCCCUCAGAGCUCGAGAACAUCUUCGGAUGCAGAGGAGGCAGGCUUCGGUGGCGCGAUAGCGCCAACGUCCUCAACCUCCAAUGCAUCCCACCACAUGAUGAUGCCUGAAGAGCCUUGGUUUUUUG

variants of: B1; assay: polymerase ribozyme fitness, log enrichment relative to wild type (log ratio); higher = more active; in vitro selection for triplet polymerase activity
metric: polymerase ribozyme fitness (log ratio)

1. C13G C104U C123A U125G
0.46
2. A5U A83C
-0.98
3. C11U C115G
-1.7
4. C40U C70A G128A
-4.95
5. A46U G69U
-0.372
6. C34U G117U
-5.02
7. C53U U81C C88A
-1.58
8. G45A A84C G120C G135A
0.21
9. A5U G25U C53U G69C C94U
-7.17
10. A18U G42A
-2.11
11. G45U U112A
0.359
